- Assay target: T1, human TIGIT-Fc (human, UniProt Q495A1 22-141, limits assumed)
- T1 construct: not shown: Fc; not described
- T1 sequence (looked up): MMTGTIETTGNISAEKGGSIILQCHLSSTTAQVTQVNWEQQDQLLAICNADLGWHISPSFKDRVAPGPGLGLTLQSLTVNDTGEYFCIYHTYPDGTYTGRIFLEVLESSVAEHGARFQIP
- Assay name: CD155 competition ELISA, single point; further: test concentration or dose not given here
Reported OD (450 nm) by item:
Your answer is read as OD, so omit the unit and give the number.

TIGIT-SC191 (Fc fusion, VHH-Fc) VHH: EVQLVESGGGLVQPGGSLRLSCAASGFVFSSDWMGWFRQAPGKEREWVASVLRGGYTWYADSVKGRFTISADNSKNTAYLQMNSLKPEDTAVYYCARGDSMDVWGQGTLVTVSS | 0.49

Query :: Please list OD (450 nm) recorded for the binder TIGIT-SC69 (Fc fusion, VHH-Fc) VHH: EVQLVESGGGLVQPGGSLRLSCAASGGTFNGRAMGWFRQAPGKEREFVAAISSIGDTYYADSVKGRFTISADNSKNTAYLQMNSLKPEDTAVYYCARWRLDRRQGFYYAMDVWGQGTLVTVSS
Result :: 0.666

Query :: Please list OD (450 nm) recorded for the binder TIGIT-SC148 (Fc fusion, VHH-Fc) VHH: EVQLVESGGGLVQPGGSLRLSCAASGDIGSINAMGWFRQAPGKEREFVAGIWRSGNLKAYADSVKGRFTISADNSKNTAYLQMSSLKPEDTAVYYCARGNIVVVPAAFVIWFDPWGQGTLVTVSS
Result :: 0.52

Query :: Please list OD (450 nm) recorded for the binder TIGIT-SC23 (Fc fusion, VHH-Fc) VHH: EVQLVESGGGLVQPGGSLRLSCAASGFTLSSNWMGWFRQAPGKEREWVASVLRGGYTWYADSVKGRFTISADNSKNTAYLQMNSLKPEDTAVYYCARERLGWFDPWGQGTLVTVSS
Result :: 0.424

Query :: Please list OD (450 nm) recorded for the binder TIGIT-SC93 (Fc fusion, VHH-Fc) VHH: EVQLVESGGGLVQPGGSLRLSCAASSRTVSSHAMGWFRQAPGKEREFVAAISWSGVTTYYADSVKGRFTISADNSKNTAYLQMNSLKPEDTAVYYCARWRSIWSGYDDYYYMDVWGQGTLVTVSS
Result :: 0.307

Query :: Please list OD (450 nm) recorded for the binder TIGIT-SC6 (Fc fusion, VHH-Fc) VHH: EVQLVESGGGLVQPGGSLRLSCAASGNTFSGGFMGWFRQAPGKEREWVASVLRGGYTWYADSVKGRFTISADNSKNTAYLQMNSLKPEDTAVYYCAISPVAWHAKFDSWGQGTLVTVSS
Result :: 0.558

Query :: Please list OD (450 nm) recorded for the binder TIGIT-SC190 (Fc fusion, VHH-Fc) VHH: EVQLVESGGGLVQPGGSLRLSCAASGFTFDRSWMGWFRQAPGKEREWVASVLRGGYTWYADSVKGRFTISADNSKNTAYLQMNSLKPEDTAVYYCVTDVGAPDYWGQGTLVTVSS
Result :: 0.533

Query :: Please list OD (450 nm) recorded for the binder TIGIT-SC100 (Fc fusion, VHH-Fc) VHH: EVQLVESGGGLVQPGGSLRLSCAASGRTLSDRAMGWFRQAPGKEREFVAAITDNGGSTYYADSVKGRFTISADNSKNTAYLQMNSLKPEDTAVYYCARWYSSSGDYYYMDVWGQGTLVTVSS
Result :: 0.692
